Below, each entry is listed alongside its reported growth.
- Tested on: OVCAR-8 ovarian
- ASSAY_PROCEDURE: NCI-60 one-dose screen, 48 h (100 = growth as untreated, 0 = no growth, -100 = all killed)
- EXPERIMENTAL_PARAMETERS: 10 µM unless noted
About 83,000 compounds went through this panel and 20% of them were active in at least one assay; those are over-represented in the sample as a whole. Calls of active or inactive are those of the source. How the source made its calls: active means growth percent below 10; inactive means the rest.
MEASURED_PARAMETER: growth

1. CC(=O)c1ccc(NS(=O)(=O)c2cccc(C(=O)Nc3ccc(Br)cc3)c2)cc1 67.3% [25 µM] (inactive)
2. CN(C)CCn1c2ccc(Br)cc2c2nc3ccccc3nc21 32.9% (inactive)
3. O=C(Nc1cccc(C2=NCCN2)c1)c1ccc(-c2ccc(C(=O)Nc3cccc(C4=NCCN4)c3)cc2)cc1 80.7% (inactive)
4. COc1cc(/C=N/O)nc(-c2ccccn2)c1 17.6% (inactive)
5. CCOC(=O)Oc1c(OC)cc(C(=O)c2ccc(OC)c(OC(=O)CCl)c2OC)cc1OC 25.5% (inactive)

###

- System: M14 melanoma
- ASSAY_PROCEDURE: NCI-60 one-dose screen, 48 h
- EXPERIMENTAL_PARAMETERS: 10 µM unless noted
Compounds without any hit were thinned out: in the full panel of roughly 83,000, 20% have a hit. Activity calls are given as the source filed them. Rule for the calls: active = growth percent below 10; inactive = the rest.
Labels: yes for active, no for inactive

MOLECULE	ASSIGNED_LABEL
COc1cccc(-c2nc3occn3c2-c2ccnc(NCCNS(=O)(=O)c3ccc(C(F)(F)F)cc3)n2)c1	no
Cc1nnc2c(Cc3ccccc3)nc3ccccc3n12	no
O=C(CCN1CCCC1)Nc1ccc2c(NCCCc3ccccc3)c3ccccc3nc2c1	yes
CCCCCCOc1ccc(/C=N/Nc2cc(C)nc3ccc(Cl)cc23)cc1	yes
COC(=O)C1=C(C(=O)ON)C2C=CC1(C(Cc1ccccc1)Nc1ccccc1)O2 (centres undefined)	no
NS(=O)(=O)c1ccc(Cn2c(SCC(=O)N/N=C/c3ccccc3O)nc3ccccc3c2=O)cc1	no
Nc1c(S(=O)(=O)O)cc2c3c(cccc13)C(=O)OC2=O	no
CN1CCN(C(=O)[C@]23CCC(C)(C)C[C@H]2C2=CC[C@@H]4[C@@]5(C)C/C(=C/c6ccncc6)C(=O)C(C)(C)[C@@H]5CC[C@@]4(C)[C@]2(C)CC3)CC1	no
COc1ccc2nc(-c3ccc(-c4noc(-c5cc(OC)c(OC)c(OC)c5)n4)cc3)[nH]c2c1	no

###

- Test system: NCI-H522 lung
- ASSAY_PROCEDURE: NCI-60 one-dose screen, 48 h (100 = growth as untreated, 0 = no growth, -100 = all killed)
- EXPERIMENTAL_PARAMETERS: 10 µM unless noted
The panel holds about 83,000 compounds, 20% with a hit somewhere; the sample as a whole holds those more often.
# if value of growth reaches 10%, tag Condition met; if it stays below, tag Condition not met

COMPOUND	ASSIGNED_LABEL
Cc1ccc(-n2c3c(c(-c4ccccc4)c2-c2ccccc2)C2=NCCN2C=N3)cc1	Condition met
O=C1NN(C(=O)c2ccccc2)C(c2ccc(Cl)c(Cl)c2)=C/C1=C\c1ccc([N+](=O)[O-])cc1	Condition met
COc1cc(/C=N/O)nc(-c2ccccn2)c1	Condition not met
CCOc1ccc(Nc2nc(-c3ccc4c(c3)NC(=O)CO4)cs2)cc1	Condition met
COc1cc(/C=C2\COc3ccc(-c4ccccc4)cc3C2=O)cc(OC)c1	Condition met
CCOC(=O)CSc1nc2ccccc2c(=O)n1Cc1ccc(S(N)(=O)=O)cc1	Condition met
COc1cc(/C=N/NC(=O)c2cnn3c2NC(c2ccccc2)C3)ccc1OCc1ccccc1 (configuration not stated)	Condition met
CNCCOc1nc2c3cnccc3cc(-c3cc(OC)c(OC)c(OC)c3)c2c2ccncc12	Condition not met
COc1cc2nc(-c3ccc(C(F)(F)F)cc3)cc(OCCCN3CCOCC3)c2cc1OC	Condition met
Cn1c(N2NC(=O)C(N=Nc3ccc(S(N)(=O)=O)cc3)C2=O)nc(-c2ccco2)c(C#N)c1=O (configuration not stated)	Condition not met
c1ccc2cc(Cn3c(-c4cccc5ccccc45)[n+](Cc4ccc5ccccc5c4)c4c5ccccc5c5ccccc5c43)ccc2c1	Condition not met
Nc1c(C(=O)Nc2cccc3cnccc23)sc2nc3c(cc12)C(=O)CCC3	Condition met
Cc1ccc(NC(=O)Cc2ccc(/C=C/C(=O)c3ncc[nH]3)cc2)cc1	Condition met
COc1ccc(C(=O)C2C(C#N)C(C#N)C3c4ccccc4C=CN23)cc1 (configuration not stated)	Condition met
COc1cc2c(c(OC)c1OC)-c1ccc(NNC(=S)N(Cc3cccc(C[N+](Cc4cccc(CNC56CC7CC(CC(C7)C5)C6)c4)(Cc4cccc(CNC56CC7CC(CC(C7)C5)C6)c4)Cc4cccc(CN(C(=S)NNc5ccc6c(cc5=O)[C@@H](NC(C)=O)CCc5cc(OC)c(OC)c(OC)c5-6)C56CC7CC(CC(C7)C5)C6)c4)c3)C34CC5CC(CC(C5)C3)C4)c(=O)cc1[C@@H](NC(C)=O)CC2 (some centres not stated)	Condition not met
COc1cc(CC(=O)c2ccc(O)c(OC)c2)ccc1O	Condition met
CCOC(=O)[C@@H]1CCCN(S(=O)(=O)c2ccc(S(=O)(=O)N(CC)CC)c(F)c2)C1	Condition met
